For each of the compounds below, state its IC50.
# Tested on: PC-3 cells
# experiment-summary: Antiproliferative activity, Alamar Blue assay, PC-3 cells
# Type: cell-based, human
# condition-summary: Homo sapiens, PC-3, PC3 cells, Alamar Blue; read-out: PC3 antiproliferative activity pIC50 (converted)
Give bare numbers, in µM.

>>> measured("CCc1cc2ccc(C(C)(C#N)Cc3cccc(OCCO)c3)cc2[nH]c1=O (centres unmarked)")
0.501
>>> measured("CCc1cc2ccc(C(C)(C#N)Cc3cccc(C#Cc4cncn4C)n3)cc2[nH]c1=O (centres unmarked)")
6.31
>>> measured("CCc1cc2ccc(C(C)(C#N)Cc3cnc(OC)nc3OC)cc2[nH]c1=O (centres unmarked)")
0.398

Hey, quick one: what's IC50 for each of these?
1. CCc1cc2ccc([C@](C)(C#N)[C@@H](C)c3ccccc3)cc2[nH]c1=O
2. CCc1cc2ccc([C@](C)(C#N)Cc3nc(OC)cc(OC)n3)cc2[nH]c1=O (single isomer, unassigned)

Response given:
[10, 7.94]

----------
# system-name: Human PARP-1 enzyme (Homo sapiens, UniProt P09874)
# Construct: purchased Trevigen
# Sequence (P09874 whole entry): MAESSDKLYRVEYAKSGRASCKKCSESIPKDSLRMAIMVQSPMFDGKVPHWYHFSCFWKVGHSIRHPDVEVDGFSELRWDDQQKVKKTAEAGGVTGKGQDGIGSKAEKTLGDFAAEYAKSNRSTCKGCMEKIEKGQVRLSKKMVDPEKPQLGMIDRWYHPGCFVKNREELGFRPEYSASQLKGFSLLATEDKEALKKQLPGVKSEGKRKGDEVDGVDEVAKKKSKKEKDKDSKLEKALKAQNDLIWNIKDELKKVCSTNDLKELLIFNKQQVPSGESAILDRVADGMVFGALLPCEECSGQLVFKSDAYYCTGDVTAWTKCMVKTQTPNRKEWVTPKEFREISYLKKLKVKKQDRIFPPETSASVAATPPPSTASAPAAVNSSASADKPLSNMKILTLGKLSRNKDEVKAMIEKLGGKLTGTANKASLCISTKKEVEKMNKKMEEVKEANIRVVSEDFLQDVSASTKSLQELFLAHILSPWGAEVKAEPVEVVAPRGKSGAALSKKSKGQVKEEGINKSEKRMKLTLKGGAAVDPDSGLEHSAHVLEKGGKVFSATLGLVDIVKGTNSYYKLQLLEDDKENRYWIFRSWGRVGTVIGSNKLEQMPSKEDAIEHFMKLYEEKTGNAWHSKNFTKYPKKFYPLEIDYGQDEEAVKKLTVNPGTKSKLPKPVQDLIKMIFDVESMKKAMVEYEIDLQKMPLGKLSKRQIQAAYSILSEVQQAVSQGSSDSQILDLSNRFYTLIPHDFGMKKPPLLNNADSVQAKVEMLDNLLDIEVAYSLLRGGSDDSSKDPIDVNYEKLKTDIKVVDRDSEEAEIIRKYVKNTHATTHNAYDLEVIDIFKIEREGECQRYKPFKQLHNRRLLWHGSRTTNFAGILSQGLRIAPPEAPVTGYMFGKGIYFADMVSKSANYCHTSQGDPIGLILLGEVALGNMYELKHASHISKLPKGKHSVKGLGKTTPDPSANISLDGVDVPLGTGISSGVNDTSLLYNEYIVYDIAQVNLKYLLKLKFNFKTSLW
# experiment-summary: In vitro Scintillation Proximity Assay (SPA) for PARP-1 inhibitory activity
# Type: biochemical
# condition-summary: read-out: in vitro SPA assay PARP-1 pIC50 (converted)
For each of the molecules below, state its IC50.
One number for each entry, in nM.

>>> measured("CCc1cc2ccc(C(C)(C#N)Cc3cccc(-c4cnn(C)c4)c3)cc2[nH]c1=O (stereo not shown)")
251
>>> measured("CCc1cc2ccc(C(C#N)(CC)Cc3nc(OC)cc(OC)n3)cc2[nH]c1=O (stereo not shown)")
79.4
>>> measured("CCc1cc2ccc(C(C)(C#N)CN3CCC(c4ccccc4)CC3)cc2[nH]c1=O (stereo not shown)")
158

Please examine the following record next.
Challenge: Form field: reported IC50 of CCc1cc2ccc(C(C#N)(Cc3ccccc3)c3ccc(C#N)cc3)cc2[nH]c1=O (stereo not shown)
Response given: 1580

----------
For each of the compounds below, state its melting point.
One number for each entry, in °C.

Solved cases below.
>>> measured("Cc1cc2ccc([C@](C)(C#N)Cc3cccc(C#N)c3)cc2[nH]c1=O [Compound 36]")
226
>>> measured("CCc1cc2ccc(C(C)(C#N)Cc3cccc(N)c3)cc2[nH]c1=O (centres unmarked) [Compound 15]")
187
>>> measured("CCc1cc2ccc(C(C)(C#N)Cc3cccc(OCCCN4CCNCC4)c3)cc2[nH]c1=O (centres unmarked) [Compound 25]")
50
>>> measured("CCc1cc2ccc(C(C)(C#N)Cc3cccc(C#CCO)c3)cc2[nH]c1=O (centres unmarked) [Compound 183]")
182
>>> measured("CCc1cc2ccc(C(C)(C#N)CC3COc4ccccc4O3)cc2[nH]c1=O (single isomer, unassigned) [Compound 47]")
176

Hey, quick one: what's melting point for each of these?
1. CCc1cc2ccc(C(C)(C#N)Cc3cccc(C#N)c3)cc2[nH]c1=O (centres unmarked) [Compound 51]
2. CC(C)c1cc2ccc(C(C)(C#N)Cc3ccccc3)cc2[nH]c1=O (centres unmarked) [Compound 38]
3. CCc1cc2ccc([C@@](C)(C#N)CN(C)Cc3ccc(C#N)cc3)cc2[nH]c1=O (single isomer, unassigned) [Compound 253]

Response given:
1: 192; 2: 178; 3: 116

----------
# Tested on: PC3 cells
# experiment-summary: EB1 Comet (microtubule disruption) assay
# Format: cell-based, human
# condition-summary: Homo sapiens, PC-3, 1 h, 1 hour treatment, read-out: EB1 pLAC (converted)
recorded-metric: minimal effective concentration (µM)
Give bare numbers, in µM.

Solved cases below.
>>> measured("Cc1cc2ccc(C(C)(C#N)Cc3cccc(Oc4ccccc4)c3)cc2[nH]c1=O (centres unmarked) [Compound 305]")
3.16
>>> measured("Cc1cc2ccc(C(C)(C#N)Cc3cc4ccccc4s3)cc2[nH]c1=O (centres unmarked) [Compound 71]")
1
>>> measured("CCc1cc2ccc(C(C)(C#N)Cc3nccc(OCCOC)n3)cc2[nH]c1=O (centres unmarked) [Compound 369]")
3.16
>>> measured("CCc1cc2ccc(C(C)(C#N)Cc3cccc(S(F)(F)(F)(F)F)c3)cc2[nH]c1=O (centres unmarked) [Compound 177]")
1
>>> measured("CCc1cc2ccc(C(C)(C#N)Cc3cccc(CNS(C)(=O)=O)c3)cc2[nH]c1=O (centres unmarked) [Compound 170]")
3.16
>>> measured("CCc1cc2ccc(C(C)(C#N)Cc3cccc(COC)n3)cc2[nH]c1=O (centres unmarked) [Compound 216]")
1
>>> measured("CCc1cc2ccc(C(C)(C#N)Cc3cccc(N(C)C)n3)cc2[nH]c1=O (centres unmarked) [Compound 213]")
0.316

Please examine the following record next.
Challenge: Form field: reported minimal effective concentration of CCOc1cc(OCC)nc(CC(C)(C#N)c2ccc3cc(CC)c(=O)[nH]c3c2)n1 (centres unmarked) [Compound 309]
Response given: 3.16

----------
# system-name: Human PARP-1 enzyme (Homo sapiens)
# Construct: purchased Trevigen
# experiment-summary: In vitro Scintillation Proximity Assay (SPA) for PARP-1 inhibitory activity
# Assay type: biochemical
# condition-summary: read-out: in vitro SPA assay PARP-1 pIC50 (converted)
# Protocol: Compounds of the present invention were tested in an in vitro assay based on SPA technology (proprietary to GE healthcare). […] Histones (type II-A, supplier: Sigma) were biotinylated using the biotinylation kit of Amersham and stored aliquoted at −20° C. […] The beads were sedimented by centrifugation (10 min, 800 rpm). and plates transferred to a TopCountNXT™ (Packard) for scintillation counting, values were expressed as counts per minute (cpm). […]
recorded-metric: IC50 (nM)
Give bare numbers, in nM.

Solved cases below.
>>> measured("CCc1cc2ccc(C(C)(C#N)Cc3cccc(OCCCN4CCNCC4)c3)cc2[nH]c1=O (centres unmarked) [Compound 25]")
1580
>>> measured("CCc1cc2ccc(C(C)(C#N)CN3CCN(c4ncc(Br)cn4)CC3)cc2[nH]c1=O (centres unmarked) [Compound 374]")
100
>>> measured("CCc1cc2ccc(C(C)(C#N)Cc3cccc(CN)c3)cc2[nH]c1=O (centres unmarked) [Compound 290]")
50.1
>>> measured("Cc1cc2ccc(C(C)(C#N)Cc3cc(F)cc(F)c3)cc2[nH]c1=O (centres unmarked) [Compound 282]")
100
>>> measured("CCc1cc2ccc([C@@](C)(C#N)C[C@@H]3CCc4cc(C)ccc4O3)cc2[nH]c1=O [Compound 252]")
200
>>> measured("CCc1cc2ccc(C(C)(C#N)CN3CCc4ccccc4C3)cc2[nH]c1=O (centres unmarked) [Compound 376]")
158
>>> measured("CCc1cc2ccc(C(C)(C#N)Cc3cccc(CCS(C)(=O)=O)c3)cc2[nH]c1=O (centres unmarked) [Compound 178]")
63.1

Please examine the following record next.
Challenge: Form field: reported IC50 of CCc1cc2ccc(C(C)(C#N)CCOc3ccccc3Br)cc2[nH]c1=O (centres unmarked) [Compound 153]
Response given: 316

----------
# system-name: Human PARP-1 enzyme (Homo sapiens)
# Construct: purchased Trevigen
# experiment-summary: In vitro Scintillation Proximity Assay (SPA) for PARP-1 inhibitory activity
# Assay type: biochemical
# condition-summary: read-out: in vitro SPA assay PARP-1 pIC50 (converted)
For each of the compounds below, state its IC50.
One number for each entry, in nM.

Solved cases below.
>>> measured("CCc1cc2ccc(C(C)(C#N)CCOc3cccc(C(F)(F)F)c3)cc2[nH]c1=O (stereo not shown)")
501
>>> measured("CCc1cc2ccc([C@](C)(C#N)Cc3cccc(N(C)C)c3)cc2[nH]c1=O (single isomer, unassigned)")
79.4
>>> measured("CCc1cc2ccc(C(C)(C#N)Cc3cccc(CNS(C)(=O)=O)c3)cc2[nH]c1=O (stereo not shown)")
79.4

Please examine the following record next.
Challenge: Form field: reported IC50 of CCc1cc2ccc(C(C)(C#N)Cc3cccc(OC(F)(F)F)c3)cc2[nH]c1=O (stereo not shown)
Response given: 794

----------
# Tested on: PC3 cells
# experiment-summary: EB1 Comet (microtubule disruption) assay
# Assay type: cell-based, human
# condition-summary: Homo sapiens, PC-3, 1 h, 1 hour treatment, read-out: EB1 pLAC (converted)
recorded-metric: minimal effective concentration

>>> measured("Cc1cc2ccc([C@](C)(C#N)C3CCc4ccccc43)cc2[nH]c1=O (single isomer, unassigned) [Compound 386]")
"0.316 µM"
>>> measured("CCc1cc2ccc(C(C)(C#N)Cc3cccc(I)c3)cc2[nH]c1=O (stereo not shown) [Compound 19]")
"0.316 µM"
>>> measured("CCc1cc2ccc(C(C#N)(CC)Cc3cccc(C#N)n3)cc2[nH]c1=O (stereo not shown) [Compound 342]")
"3.16 µM"

Please examine the following record next.
Challenge: Query for PC3 cells: what minimal effective concentration does the record show for CCc1cc2ccc([C@@](C)(C#N)Cc3nc(OC)cc(OC)n3)cc2[nH]c1=O (single isomer, unassigned) [Compound 53] ?
Response given: 0.0316 µM
